biological target: Nuclear receptor coactivator 3 (Homo sapiens) (UniProt Q9Y6Q9); experiment: SRC3 coactivator transcriptional activity inhibitors, confirmation, cell-based, luminescence, quadruplicate (AID 588792); details: HEK293 GAL4-SRC3 luciferase reporter, at 3.6 µM;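 also: 0% = DMSO treated cells and 100% = gossypol at 36 µM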
Sequence (Q9Y6Q9 whole entry, looked up, the tested form may be a part): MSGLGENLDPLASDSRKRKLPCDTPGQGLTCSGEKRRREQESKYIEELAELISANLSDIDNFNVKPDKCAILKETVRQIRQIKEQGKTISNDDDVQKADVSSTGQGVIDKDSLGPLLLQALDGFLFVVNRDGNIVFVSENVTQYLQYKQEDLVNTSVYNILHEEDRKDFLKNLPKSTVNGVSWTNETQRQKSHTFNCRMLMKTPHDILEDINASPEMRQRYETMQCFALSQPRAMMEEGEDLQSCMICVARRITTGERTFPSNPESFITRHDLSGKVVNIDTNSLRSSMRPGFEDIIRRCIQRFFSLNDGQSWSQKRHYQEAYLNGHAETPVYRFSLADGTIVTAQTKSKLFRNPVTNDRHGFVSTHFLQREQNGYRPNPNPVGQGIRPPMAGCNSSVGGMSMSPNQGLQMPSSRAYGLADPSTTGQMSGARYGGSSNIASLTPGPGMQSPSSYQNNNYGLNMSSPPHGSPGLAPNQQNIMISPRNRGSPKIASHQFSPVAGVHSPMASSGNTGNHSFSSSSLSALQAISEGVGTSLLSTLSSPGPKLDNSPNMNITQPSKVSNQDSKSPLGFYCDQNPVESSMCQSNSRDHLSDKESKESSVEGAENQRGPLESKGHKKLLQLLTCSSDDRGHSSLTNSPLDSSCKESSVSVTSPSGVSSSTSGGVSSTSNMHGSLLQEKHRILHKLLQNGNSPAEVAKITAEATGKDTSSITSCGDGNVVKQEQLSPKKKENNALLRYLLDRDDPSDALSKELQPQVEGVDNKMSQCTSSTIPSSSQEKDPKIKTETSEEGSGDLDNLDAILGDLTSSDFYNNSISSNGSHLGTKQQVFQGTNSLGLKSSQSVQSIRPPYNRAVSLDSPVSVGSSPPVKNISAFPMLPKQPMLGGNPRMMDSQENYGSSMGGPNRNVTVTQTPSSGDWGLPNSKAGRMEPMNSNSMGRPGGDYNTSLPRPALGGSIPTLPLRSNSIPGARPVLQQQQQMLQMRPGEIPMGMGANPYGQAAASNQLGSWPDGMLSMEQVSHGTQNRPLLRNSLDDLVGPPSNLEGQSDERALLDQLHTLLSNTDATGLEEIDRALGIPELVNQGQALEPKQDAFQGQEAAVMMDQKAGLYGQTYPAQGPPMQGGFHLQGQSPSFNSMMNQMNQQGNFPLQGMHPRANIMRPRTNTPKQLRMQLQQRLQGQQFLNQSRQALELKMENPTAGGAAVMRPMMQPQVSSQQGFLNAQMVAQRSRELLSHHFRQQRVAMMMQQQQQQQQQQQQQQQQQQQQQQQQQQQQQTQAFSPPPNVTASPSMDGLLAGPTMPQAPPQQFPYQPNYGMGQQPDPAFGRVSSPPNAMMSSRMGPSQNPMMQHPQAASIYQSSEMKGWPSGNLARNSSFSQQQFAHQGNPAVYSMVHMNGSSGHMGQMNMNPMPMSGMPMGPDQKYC
Activity calls are given as the source filed them.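 The calls were made as follows: active = mean inhibition over 43.08%, the solvent-only control mean plus 3 SD; inactive = the rest.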
// allowed return values: T = active, F = inactive

Would you please look over these solved cases?
>  <compound>
COc1ccccc1OCC(=O)N/N=C/c1c(O)ccc2ccccc12

>  <studyTarget>
Nuclear receptor coactivator 3 (Homo sapiens) (UniProt Q9Y6Q9)

>  <labelClass>
F

$$$$
>  <compound>
COc1cccc(NC(=O)CSc2nnc(-c3cc(C)n(-c4ccccc4)c3C)o2)c1

>  <studyTarget>
Nuclear receptor coactivator 3 (Homo sapiens) (UniProt Q9Y6Q9)

>  <labelClass>
T

$$$$

Assay result, entry `Cc1ccc(Cl)cc1N(Cc1ccc(C(=O)NCc2cccnc2)cc1)S(=O)(=O)c1ccccc1` — outcome?
F

Assay result, entry `COc1ccc(-c2c[n+]3c(n2-c2ccc(C)cc2)CCCCC3)cc1` — outcome?
F

---

# inhibition per entry
assay: Gal4-VP16 luciferase reporter inhibitors, counter-screen for COUP-TFII antagonist project, cell-based, luminescence, HEK293 (AID 687007); conditions: at 8.5 µM, stronger effect = higher value
The list shows a part of the results.
Number only, in %; omit the unit.

>  <compound>
COc1ccc(/C=C2/SC(=O)N(CCCCCC(=O)Nc3ccccc3C(=O)O)C2=S)cc1

>  <inhibition (%)>
29.6

$$$$

Note to self: inhibition recorded for COc1ccc(OC)c(NC(=O)c2cc(-c3cc(F)ccc3OCC3CCCO3)n[nH]2)c1 (centres undefined) was 3.7

Note to self: inhibition recorded for `c1coc(CNc2ncnc3ccccc23)c1` was 4.88

Note to self: inhibition recorded for `Cc1ccc(C)c(S(=O)(=O)N2CCN(c3ncnc4sccc34)CC2)c1` was 20.1

Note to self: inhibition recorded for `Cc1cc(C(=O)COC(=O)C2CC2)c(C)n1-c1ccc(F)cc1` was -16.4

Note to self: inhibition recorded for `Cc1nc2ccccc2cc1OCc1ccc(F)cc1` was -26.8

Note to self: inhibition recorded for `CN(C(=O)c1cccc(NC(=O)Cc2cccc([N+](=O)[O-])c2)c1)C1CCCCC1` was -3.36

Note to self: inhibition recorded for `Cc1ccc(Nc2nc(CSc3nnc(-c4ccncc4)n3-c3ccccc3C)cs2)cc1` was -8.65

Note to self: inhibition recorded for `COc1ccc(-n2c(C)cc(C(=O)CSc3nnc(-c4cccs4)o3)c2C)cc1` was 0.72

Note to self: inhibition recorded for O=C(Nc1ccccc1Cl)/C(Cl)=C(\Cl)S(=O)c1ccccc1 (centres undefined) was 78.8

Note to self: inhibition recorded for `O=C(c1cc(C(=O)N2CCN(c3ccc(F)cc3)CC2)cc([N+](=O)[O-])c1)N1CCN(c2ccc(F)cc2)CC1` was -2.78

Note to self: inhibition recorded for `C=CCn1c(C)cc(C2=NNC(=NCC)SC2)c1C` was 82

Note to self: inhibition recorded for `CCCCn1c(SCc2ncc(-c3ccccc3)o2)nc2cc(S(N)(=O)=O)ccc21` was 6.53

Note to self: inhibition recorded for `Cc1ccc(-c2cn3cc(C)ccc3n2)cc1` was 20.1

---

molecular target: Protein phosphatase methylesterase 1 (Homo sapiens); assay: PME-1 inhibitor activity retest, confirmation, biochemical, fluorescence polarization, FP-Rh probe, triplicate (AID 2171); conditions: recombinant PME-1, FP-Rh probe fluorescence polarization; at 5.9 µM; stronger effect = higher value;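 also: 0% = enzyme with DMSO and 100% = wells lacking PME-1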
measure: inhibition (%)
Number only, in %; omit the unit.

>  <compound>
Cc1ccc(N/N=C(\C#N)C(N)=S)c(C)c1

>  <measure>
inhibition

>  <resultNumber>
57.9

$$$$

# next compound below
Note to self: inhibition recorded for `COc1cccc(NC(=O)Nc2ccc3c(c2)N(C)C(=O)CS3)c1` was 9.42
